Test system: NCI-H23
Test Details: relative viability (nuclei count vs DMSO), 5 days (fraction); higher = more cells survive
Run Conditions: first compound 0.006325 µM
Binarize relative viability at 0.2; below is rule met, at or above is rule not met.

INSERT INTO assay_data (molecule, experimental_system, category_label) VALUES
  ('CC(=O)O[C@@]12CO[C@@H]1C[C@H](O)[C@@]1(C)C(=O)[C@H](O)C3=C(C)[C@@H](OC(=O)[C@H](O)[C@@H](NC(=O)OC(C)(C)C)c4ccccc4)C[C@@](O)([C@@H](OC(=O)c4ccccc4)[C@H]21)C3(C)C [Docetaxel] + NC(=O)Nc1cc(-c2cccc(F)c2)sc1C(=O)N[C@H]1CCCNC1 [AZD7762] (partner 0.2 µM)', 'NCI-H23', 'rule met'),
  ('CC(=O)O[C@@]12CO[C@@H]1C[C@H](O)[C@@]1(C)C(=O)[C@H](O)C3=C(C)[C@@H](OC(=O)[C@H](O)[C@@H](NC(=O)OC(C)(C)C)c4ccccc4)C[C@@](O)([C@@H](OC(=O)c4ccccc4)[C@H]21)C3(C)C [Docetaxel] + CS(=O)(=O)CCNCc1ccc(-c2ccc3ncnc(Nc4ccc(OCc5cccc(F)c5)c(Cl)c4)c3c2)o1 [Lapatinib] (partner 2 µM)', 'NCI-H23', 'rule met'),
  ('CC(=O)O[C@@]12CO[C@@H]1C[C@H](O)[C@@]1(C)C(=O)[C@H](O)C3=C(C)[C@@H](OC(=O)[C@H](O)[C@@H](NC(=O)OC(C)(C)C)c4ccccc4)C[C@@](O)([C@@H](OC(=O)c4ccccc4)[C@H]21)C3(C)C [Docetaxel] + O=C(c1cc(Cc2n[nH]c(=O)c3ccccc23)ccc1F)N1CCN(C(=O)C2CC2)CC1 [Olaparib] (partner 8 µM)', 'NCI-H23', 'rule met'),
  ('CC(=O)O[C@@]12CO[C@@H]1C[C@H](O)[C@@]1(C)C(=O)[C@H](O)C3=C(C)[C@@H](OC(=O)[C@H](O)[C@@H](NC(=O)OC(C)(C)C)c4ccccc4)C[C@@](O)([C@@H](OC(=O)c4ccccc4)[C@H]21)C3(C)C [Docetaxel] + CC(=O)c1c(C)c2cnc(Nc3ccc(N4CCNCC4)cn3)nc2n(C2CCCC2)c1=O [Palbociclib] (partner 0.5 µM)', 'NCI-H23', 'rule met');

Consider the record given below.
Query: Please check: relative viability for CC(=O)O[C@@]12CO[C@@H]1C[C@H](O)[C@@]1(C)C(=O)[C@H](O)C3=C(C)[C@@H](OC(=O)[C@H](O)[C@@H](NC(=O)OC(C)(C)C)c4ccccc4)C[C@@](O)([C@@H](OC(=O)c4ccccc4)[C@H]21)C3(C)C [Docetaxel] + CC1(C)CCC(c2ccc(Cl)cc2)=C(CN2CCN(c3ccc(C(=O)NS(=O)(=O)c4ccc(N[C@H](CCN5CCOCC5)CSc5ccccc5)c(S(=O)(=O)C(F)(F)F)c4)cc3)CC2)C1 [Navitoclax] (partner 0.5 µM) , strictly under 0.2 or not?
Result: rule not met

###

Record form. Attribute: relative viability. Fill in for each entry.
Test system: NCI-H838
Test Details: relative viability (nuclei count vs DMSO), 5 days (fraction); higher = more cells survive
Run Conditions: first compound 2.53 µM
Give bare numbers.

INSERT INTO measurements (compound, measured_quantity, experimental_value) VALUES
  ('Cc1cnc(-c2cnc(NCCNc3ccc(C#N)cn3)nc2-c2ccc(Cl)cc2Cl)[nH]1 + CCNC(=O)c1noc(-c2cc(C(C)C)c(O)cc2O)c1-c1ccc(CN2CCOCC2)cc1 [Luminespib] (partner 0.01 µM)', 'relative viability', 0.301);

Provide relative viability for all items below, preserving their order.
1. O=c1[nH]c2ccccc2n1C1CCN(CCCC(c2ccc(F)cc2)c2ccc(F)cc2)CC1 [Pimozide] + COc1cccc2cc(-c3nc([C@H]4CC[C@H](C(=O)O)CC4)n4ncnc(N)c34)[nH]c12 [OSI-027] (partner 0.5 µM)
2. Cc1cnc(-c2cnc(NCCNc3ccc(C#N)cn3)nc2-c2ccc(Cl)cc2Cl)[nH]1 + CC(C)C[C@H](NC(=O)[C@H](Cc1ccccc1)NC(=O)c1cnccn1)B(O)O [Bortezomib] (partner 0.002 µM)
3. Cc1cnc(-c2cnc(NCCNc3ccc(C#N)cn3)nc2-c2ccc(Cl)cc2Cl)[nH]1 + CS(=O)(=O)N1CCN(Cc2cc3nc(-c4cccc5[nH]ncc45)nc(N4CCOCC4)c3s2)CC1 [Pictilisib] (partner 1 µM)
4. Cc1cnc(-c2cnc(NCCNc3ccc(C#N)cn3)nc2-c2ccc(Cl)cc2Cl)[nH]1 + Cc1nc(NC(=O)N2CCC[C@H]2C(N)=O)sc1-c1ccnc(C(C)(C)C(F)(F)F)c1 [Alpelisib] (partner 2 µM)
5. Cc1cnc(-c2cnc(NCCNc3ccc(C#N)cn3)nc2-c2ccc(Cl)cc2Cl)[nH]1 + NC(=O)Nc1cc(-c2cccc(F)c2)sc1C(=O)N[C@H]1CCCNC1 [AZD7762] (partner 0.2 µM)
6. Cc1cnc(-c2cnc(NCCNc3ccc(C#N)cn3)nc2-c2ccc(Cl)cc2Cl)[nH]1 + C[C@@H](Oc1cc(-c2cnn(C3CCNCC3)c2)cnc1N)c1c(Cl)ccc(F)c1Cl [Crizotinib] (partner 1 µM)

Result:
1: 0.4; 2: 0.99; 3: 1.19; 4: 1.41; 5: 0.983; 6: 1.01

Query: Return reported relative viability; argument: O=c1[nH]c2ccccc2n1C1CCN(CCCC(c2ccc(F)cc2)c2ccc(F)cc2)CC1 [Pimozide] + NC(=O)Nc1cc(-c2cccc(F)c2)sc1C(=O)N[C@H]1CCCNC1 [AZD7762] (partner 0.2 µM)
Result: 0.938

###

System: NCI-H441
Test Details: relative viability (nuclei count vs DMSO), 5 days (fraction); higher = more cells survive
Run Conditions: first compound 0.8 µM
Measured Quantity: relative viability
Give bare numbers.

INSERT INTO assay_data (compound, measured_quantity, experimental_value) VALUES
  ('Cc1cnc(-c2cnc(NCCNc3ccc(C#N)cn3)nc2-c2ccc(Cl)cc2Cl)[nH]1 + Nc1nc2[nH]cc(CCc3ccc(C(=O)N[C@@H](CCC(=O)O)C(=O)O)cc3)c2c(=O)[nH]1 [Pemetrexed] (partner 0.2 µM)', 'relative viability', 0.279),
  ('O=c1[nH]c2ccccc2n1C1CCN(CCCC(c2ccc(F)cc2)c2ccc(F)cc2)CC1 [Pimozide] + CC(C)C[C@H](NC(=O)[C@H](Cc1ccccc1)NC(=O)c1cnccn1)B(O)O [Bortezomib] (partner 0.002 µM)', 'relative viability', 0.325),
  ('Cc1cnc(-c2cnc(NCCNc3ccc(C#N)cn3)nc2-c2ccc(Cl)cc2Cl)[nH]1 + C[C@@H](Oc1cc(-c2cnn(C3CCNCC3)c2)cnc1N)c1c(Cl)ccc(F)c1Cl [Crizotinib] (partner 1 µM)', 'relative viability', 0.713),
  ('O=c1[nH]c2ccccc2n1C1CCN(CCCC(c2ccc(F)cc2)c2ccc(F)cc2)CC1 [Pimozide] + COc1cc2c(Oc3ccc(NC(=O)C4(C(=O)Nc5ccc(F)cc5)CC4)cc3F)ccnc2cc1OCCCN1CCOCC1 [Foretinib] (partner 0.25 µM)', 'relative viability', 1.1);

Now for a further compound.
Query: Item: Cc1cnc(-c2cnc(NCCNc3ccc(C#N)cn3)nc2-c2ccc(Cl)cc2Cl)[nH]1 + C[C@]1(O)C[C@@H](c2nc(-c3ccc4ccc(-c5ccccc5)nc4c3)c3c(N)nccn32)C1 [Linsitinib] (partner 1 µM) Test system: NCI-H441 Read-out: relative viability Value: ?
Result: 0.606

###

Tested on: SW 900
Test Details: relative viability (nuclei count vs DMSO), 5 days (fraction); higher = more cells survive
Run Conditions: first compound 0.006325 µM
Measured Quantity: relative viability
Answers are plain numbers.

Query: Return reported relative viability; argument: CC(=O)O[C@@]12CO[C@@H]1C[C@H](O)[C@@]1(C)C(=O)[C@H](O)C3=C(C)[C@@H](OC(=O)[C@H](O)[C@@H](NC(=O)OC(C)(C)C)c4ccccc4)C[C@@](O)([C@@H](OC(=O)c4ccccc4)[C@H]21)C3(C)C [Docetaxel] + COc1cc2c(Oc3ccc(NC(=O)C4(C(=O)Nc5ccc(F)cc5)CC4)cc3F)ccnc2cc1OCCCN1CCOCC1 [Foretinib] (partner 0.25 µM)
Result: 0.247

###

Record form. Attribute: relative viability. Fill in for each entry.
Test system: NCI-H1651
Test Details: relative viability (nuclei count vs DMSO), 5 days (fraction); higher = more cells survive
Run Conditions: first compound 0.002 µM
Answers are plain numbers.

INSERT INTO measurements (compound, experimental_value) VALUES
  ('CC(=O)O[C@@]12CO[C@@H]1C[C@H](O)[C@@]1(C)C(=O)[C@H](O)C3=C(C)[C@@H](OC(=O)[C@H](O)[C@@H](NC(=O)OC(C)(C)C)c4ccccc4)C[C@@](O)([C@@H](OC(=O)c4ccccc4)[C@H]21)C3(C)C [Docetaxel] + CS(=O)(=O)CCNCc1ccc(-c2ccc3ncnc(Nc4ccc(OCc5cccc(F)c5)c(Cl)c4)c3c2)o1 [Lapatinib] (partner 2 µM)', 0.161),
  ('CC(=O)O[C@@]12CO[C@@H]1C[C@H](O)[C@@]1(C)C(=O)[C@H](O)C3=C(C)[C@@H](OC(=O)[C@H](O)[C@@H](NC(=O)OC(C)(C)C)c4ccccc4)C[C@@](O)([C@@H](OC(=O)c4ccccc4)[C@H]21)C3(C)C [Docetaxel] + COc1cc2c(Oc3ccc(NC(=O)C4(C(=O)Nc5ccc(F)cc5)CC4)cc3F)ccnc2cc1OCCCN1CCOCC1 [Foretinib] (partner 0.25 µM)', 0.238),
  ('CC(=O)O[C@@]12CO[C@@H]1C[C@H](O)[C@@]1(C)C(=O)[C@H](O)C3=C(C)[C@@H](OC(=O)[C@H](O)[C@@H](NC(=O)OC(C)(C)C)c4ccccc4)C[C@@](O)([C@@H](OC(=O)c4ccccc4)[C@H]21)C3(C)C [Docetaxel] + CC(=O)Nc1cccc(-n2c(=O)n(C3CC3)c(=O)c3c(Nc4ccc(I)cc4F)n(C)c(=O)c(C)c32)c1 [Trametinib] (partner 0.02 µM)', 0.586);

Now for a further compound.
Query: Return reported relative viability; argument: CC(=O)O[C@@]12CO[C@@H]1C[C@H](O)[C@@]1(C)C(=O)[C@H](O)C3=C(C)[C@@H](OC(=O)[C@H](O)[C@@H](NC(=O)OC(C)(C)C)c4ccccc4)C[C@@](O)([C@@H](OC(=O)c4ccccc4)[C@H]21)C3(C)C [Docetaxel] + N=C(N)NC(=N)NCCc1ccccc1 [Phenformin] (partner 250 µM)
Result: 0.194
